Where do the numbers come from? From ChEMBL document CHEMBL1821672.

Each entry below carries its reported Vd.
- Assay Text: Volume of distribution at steady state in rat at 1 mg/kg, iv
- Assay type: ADME, organism-based
- Parameters: dose 1 mg/kg, route intravenous
- Experimental Setup: in vivo, read-out: Vdss
Return type: number; implicit unit L/kg.

Before answering, review these 2 worked examples.
# Cpd Smiles, Units Symbol, Observed Result
rows = [
    ("Cc1ccc(C(=O)NC2CC2)cc1-c1ccc2c(c1)NC(=O)C21CCOCC1", "L/kg", 0.8),
    ("Cc1ccc(C(=O)NC2CC2)cc1-c1ccc2c(c1)NC(=O)C21CCN(C)CC1", "L/kg", 19.1),
]

Vd for "Cc1ccc(C(=O)NC2CC2)cc1-c1ccc2c(c1)NC(=O)C21CCC(F)(F)CC1" ?
4.2

Vd for "Cc1ccc(C(=O)NC2CC2)cc1-c1cnc2c(c1)NC(=O)C21CCCC1.Cl" ?
1.2

---

- Test Target: Mitogen-activated protein kinase 14 (Homo sapiens, UniProt Q16539)
- Sequence (Q16539 whole entry): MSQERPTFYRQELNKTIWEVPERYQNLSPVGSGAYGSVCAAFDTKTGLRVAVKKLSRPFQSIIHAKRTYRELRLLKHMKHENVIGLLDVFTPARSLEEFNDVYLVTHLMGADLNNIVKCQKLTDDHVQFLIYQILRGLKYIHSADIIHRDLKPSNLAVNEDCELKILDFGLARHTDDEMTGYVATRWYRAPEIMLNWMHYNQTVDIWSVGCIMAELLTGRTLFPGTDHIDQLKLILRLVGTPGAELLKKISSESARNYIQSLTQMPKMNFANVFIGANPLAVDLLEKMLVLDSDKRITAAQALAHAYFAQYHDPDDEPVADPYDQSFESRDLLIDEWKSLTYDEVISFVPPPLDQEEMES
- Assay Text: Inhibition of p38alpha in human whole blood assessed as reduction in TNF-alpha production by ELISA
Please assign a class to every record based on measured IC50, with ranges low = under 20 nM, mid = from 20 nM up to 90 nM, high = 90 nM and over

Worked set:
# Cpd Smiles, Group Label
records = [
    ("Cc1ccc(C(=O)NC2CC2)cc1-c1ccc2c(c1)NC(=O)C21CCN(C)CC1", "low"),
    ("Cc1ccc(C(=O)NC2CC2)cc1-c1cnc2c(c1)NC(=O)C21CCC(F)(F)CC1", "high"),
    ("Cc1ccc(C(=O)NC2CC2)cc1-c1cnc2c(c1)NC(=O)C2(C)C", "high"),
    ("Cc1ccc(C(=O)NC2CC2)cc1-c1cc2c(cn1)C1(CCCC1)C(=O)N2", "mid"),
    ("Cc1ncc(C(=O)NC2CC2)cc1-c1ccc2c(c1)NC(=O)C21CCCC1", "high"),
]

Could you place "Cc1ccc(C(=O)NC2CC2)cc1-c1cnc2c(c1)NC(=O)C21CCOCC1" in its proper category? Many thanks.
mid

Could you place "Cc1ccc(C(=O)NC2CC2)cc1-c1cnc2c(c1)NC(=O)C21CCCC1" in its proper category? Many thanks.
mid

Could you place "Cc1ccc(C(=O)NC2CC2)cc1-c1ccc2c(c1)NC(=O)[C@]21CC[C@@H](O)CC1" in its proper category? Many thanks.
low

Could you place "Cc1ccc(C(=O)NC2CC2)cc1-c1ccc2c(c1)NC(=O)C21CCSCC1" in its proper category? Many thanks.
low

Could you place "Cc1ccc(C(=O)NC2CC2)cc1-c1ccc2c(n1)NC(=O)C21CCCC1" in its proper category? Many thanks.
high

Could you place "Cc1ccc(C(=O)NC2CC2)cc1-c1ccc2c(c1)NC(=O)C21CCS(=O)(=O)CC1" in its proper category? Many thanks.
mid

Could you place "Cc1ccc(C(=O)NC2CC2)cc1-c1ccc2c(c1)NC(=O)[C@]21CC[C@H](O)CC1" in its proper category? Many thanks.
low

---

- Assay Text: Terminal half life in rat at 1 mg/kg, iv
- Assay type: ADME, organism-based
- Parameters: dose 1 mg/kg, route intravenous
- Experimental Setup: in vivo, read-out: beta t1/2 (converted)
Each entry below carries its reported half-life.
Return type: number; implicit unit h.

Before answering, review these 3 worked examples.
# Cpd Smiles, Units Symbol, Observed Result
rows = [
    ("Cc1ccc(C(=O)NC2CC2)cc1-c1cnc2c(c1)NC(=O)C21CCCC1.Cl", "h", 3.9),
    ("Cc1ccc(C(=O)NC2CC2)cc1-c1ccc2c(c1)NC(=O)C21CCOCC1", "h", 2.7),
    ("Cc1ccc(C(=O)NC2CC2)cc1-c1ccc2c(c1)NC(=O)C21CCC(F)(F)CC1", "h", 14.4),
]

Note: attention shifts to another entry.
half-life for "Cc1ccc(C(=O)NC2CC2)cc1-c1ccc2c(c1)NC(=O)C21CCN(C)CC1" ?
5.1

---

- Test Target: RAF proto-oncogene serine/threonine-protein kinase (Homo sapiens)
- Sequence (P04049 whole entry): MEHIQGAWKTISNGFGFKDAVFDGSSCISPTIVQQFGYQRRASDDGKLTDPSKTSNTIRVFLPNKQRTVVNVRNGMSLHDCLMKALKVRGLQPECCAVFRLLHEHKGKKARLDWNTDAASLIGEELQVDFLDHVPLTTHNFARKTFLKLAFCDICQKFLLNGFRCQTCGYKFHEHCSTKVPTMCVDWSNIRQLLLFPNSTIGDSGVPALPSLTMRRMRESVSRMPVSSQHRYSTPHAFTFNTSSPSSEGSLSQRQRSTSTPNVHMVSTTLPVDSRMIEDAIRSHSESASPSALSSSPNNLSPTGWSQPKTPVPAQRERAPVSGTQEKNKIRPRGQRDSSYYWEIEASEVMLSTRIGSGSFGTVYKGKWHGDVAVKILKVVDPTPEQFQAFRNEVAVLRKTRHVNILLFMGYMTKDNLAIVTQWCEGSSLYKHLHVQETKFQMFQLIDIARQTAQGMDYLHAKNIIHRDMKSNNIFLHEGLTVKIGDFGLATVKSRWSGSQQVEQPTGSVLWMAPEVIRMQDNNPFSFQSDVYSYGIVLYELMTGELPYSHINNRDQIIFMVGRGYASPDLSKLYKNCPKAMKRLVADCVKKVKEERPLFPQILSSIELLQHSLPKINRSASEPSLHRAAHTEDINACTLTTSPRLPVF
Value Type: pIC50
# pIC50 = -log10(concentration in molar units)

Can you look up pIC50 on RAF proto-oncogene serine/threonine-protein kinase (Homo sapiens) for "Cc1ccc(C(=O)NC2CC2)cc1-c1ccc2c(c1)NC(=O)C21CCOCC1" ?
6.92

---

Each entry below carries its reported AUC(0-inf).
- Assay Text: AUC (0 to infinity) in rat at 10 mg/kg, po
- Type: ADME, organism-based
- Set-up: time infinity, dose 10 mg/kg, route oral
- Experimental Setup: plasma
Return type: number; implicit unit ng·h/mL.

Before answering, review these 3 worked examples.
# Cpd Smiles, AUC(0-inf) [ng·h/mL]
records = [
    ("Cc1ccc(C(=O)NC2CC2)cc1-c1ccc2c(c1)NC(=O)C21CCCC1", 2640),
    ("Cc1ccc(C(=O)NC2CC2)cc1-c1ccc2c(c1)NC(=O)C21CCOCC1", 10400),
    ("Cc1ccc(C(=O)NC2CC2)cc1-c1cnc2c(c1)NC(=O)C21CCCC1.Cl", 12000),
]

AUC(0-inf) for "Cc1ccc(C(=O)NC2CC2)cc1-c1ccc2c(c1)NC(=O)C21CCN(C)CC1" ?
786

---

- Test Target: Mitogen-activated protein kinase 14 (Homo sapiens, UniProt Q16539)
- Assay Text: Inhibition of p38alpha in human whole blood assessed as reduction in TNF-alpha production by ELISA
pIC50: −log10 of the molar value.
Binary classification by pIC50, with 8 as an inclusive lower bound for rule met; all other cases are rule not met.

# Cpd Smiles, Group Label
records = [
    ("Cc1ccc(C(=O)Nc2ccon2)cc1-c1ccc2c(c1)NC(=O)C21CCC(F)(F)CC1", "rule met"),
]

Confirm if pIC50 reported for the molecule "Cc1ccc(C(=O)NC2CC2)cc1-c1ncc2c(n1)NC(=O)C21CCCC1" is 8 or above.
rule not met

---

- Assay Text: Solubility in aqueous media at pH 7.4
- Type: physicochemical
Value Type: solubility (µg/mL)
Return type: number; implicit unit µg/mL.

solubility for "Cc1ccc(C(=O)NC2CC2)cc1-c1ccc2c(c1)NC(=O)C21CCCC1" ?
3

---

Each entry below carries its reported metabolised at 0.5 h, 5 µM.
- Assay Text: Metabolic stability in human hepatic microsomes assessed as compound turnover at 5 uM in absence of NADPH after 30 mins
- Assay type: ADME
- Experimental Setup: liver microsomes, read-out: Activity
Return type: number; implicit unit %.

Before answering, review these 3 worked examples.
# Cpd Smiles, metabolised at 0.5 h, 5 µM, %
data = [
    ("Cc1ccc(C(=O)NC2CC2)cc1-c1ccc2c(c1)NC(=O)C21CCSCC1", 41),
    ("Cc1ccc(C(=O)Nc2ccon2)cc1-c1ccc2c(c1)NC(=O)C21CCOCC1", 72),
    ("Cc1ccc(C(=O)NC2CC2)cc1-c1ccc2c(c1)NC(=O)C21CCOCC1", 40),
]

metabolised at 0.5 h, 5 µM for "Cc1c(F)cc(C(=O)NC2CC2)cc1-c1ccc2c(c1)NC(=O)C21CCN(S(C)(=O)=O)CC1" ?
53

metabolised at 0.5 h, 5 µM for "Cc1ccc(C(=O)NC2CC2)cc1-c1cnc2c(c1)NC(=O)C21CCOCC1" ?
16

metabolised at 0.5 h, 5 µM for "Cc1ccc(C(=O)NC2CC2)cc1-c1ccc2c(c1)NC(=O)C21CCCCC1" ?
29

metabolised at 0.5 h, 5 µM for "Cc1ccc(C(=O)NC2CC2)cc1-c1ccc2c(c1)NC(=O)C21CCN(C)CC1" ?
17

metabolised at 0.5 h, 5 µM for "Cc1ccc(C(=O)NC2CC2)cc1-c1ccc2c(c1)NC(=O)[C@]21CC[C@@H](O)CC1" ?
81

metabolised at 0.5 h, 5 µM for "Cc1ccc(C(=O)NC2CC2)cc1-c1cnc2c(c1)NC(=O)C2(C)C" ?
7

---

Each entry below carries its reported MRT.
- Assay Text: Mean residence time in rat at 1 mg/kg, iv
- Assay type: ADME, organism-based
- Set-up: dose 1 mg/kg, route intravenous
- Experimental Setup: in vivo
Return type: number; implicit unit h.

MRT for "Cc1ccc(C(=O)NC2CC2)cc1-c1ccc2c(c1)NC(=O)C21CCC(F)(F)CC1" ?
21

MRT for "Cc1ccc(C(=O)NC2CC2)cc1-c1ccc2c(c1)NC(=O)C21CCN(C)CC1" ?
4.3

MRT for "Cc1ccc(C(=O)NC2CC2)cc1-c1cnc2c(c1)NC(=O)C21CCCC1.Cl" ?
2.2

MRT for "Cc1ccc(C(=O)NC2CC2)cc1-c1ccc2c(c1)NC(=O)C21CCOCC1" ?
2.2

MRT for "Cc1ccc(C(=O)NC2CC2)cc1-c1ccc2c(c1)NC(=O)C21CCCC1" ?
2.1

---

- Assay Text: Cytotoxicity against CHO cells at 200 uM
- Assay type: cell-based, Cricetulus griseus
- Experimental Setup: chinese hamster, read-out: INH
Binary classification by cytotoxicity at 200 µM, with 40% as an inclusive lower bound for y; all other cases are n.

# Cpd Smiles, Group Label
data = [
    ("Cc1ccc(C(=O)NC2CC2)cc1-c1cnc2c(c1)NC(=O)C21CCOCC1", "n"),
    ("Cc1ccc(C(=O)NC2CC2)cc1-c1cc2c(cn1)C1(CCCC1)C(=O)N2", "n"),
    ("Cc1ncc(C(=O)NC2CC2)cc1-c1ccc2c(c1)NC(=O)C21CCCC1", "y"),
]

From here, focus on the item given below.
Confirm if cytotoxicity at 200 µM reported for the compound "Cc1ccc(C(=O)NC2CC2)cc1-c1cnc2c(c1)NC(=O)C21CCCC1" is 40% or above.
y
